Cited source: patent US20160045531A1

Test system: MOLM-13 cells
protocol-description: Flow cytometric analysis of cell cycle and Annexin V, MOLM-13
Type: cell-based, human
run-conditions: Homo sapiens, 168 h; MOLM-13, single agent, 7 days, Annexin-V staining; read-out: Midpoint value (EC50) of decrease in total content of viable cells
recorded-endpoint: EC50
Your reply should be a number followed by the unit it is expressed in.

[Q] For the compound CC(C)N(C[C@H]1O[C@@H](n2cnc3c(N)ncnc32)[C@H](O)[C@@H]1O)[C@H]1C[C@@H](CCc2nc3cc(C(C)(C)C)ccc3[nH]2)C1 [Compound A2] , what EC50 is on record?
[A] 364 nM
